The reported numbers originate from ChEMBL document CHEMBL1130894.

tested on: Helicobacter pylori; test: Antibacterial activity was evaluated against Helicobacter pylori (FP1757).; assay type: functional
observed.property: MIC (mg/L)
One number for each entry, in mg/L.

Before answering, review these 6 worked examples.
{"compound": "CC(=O)Nc1ccc(Cl)c(COc2cccc3cnccc23)c1", "unit.name": "mg/L", "numeric.result": 1.56}
{"compound": "CC(=O)Nc1cccc(COc2cccc3cnccc23)c1Cl", "unit.name": "mg/L", "numeric.result": 0.39}
{"compound": "c1ccc(COc2cccc3cnccc23)cc1", "unit.name": "mg/L", "numeric.result": 1.56}
{"compound": "Nc1ccc(Cl)c(COc2cccc3cnccc23)c1", "unit.name": "mg/L", "numeric.result": 0.39}
{"compound": "CC(=O)Nc1ccc(Cl)c(COc2cccc3cnccc23)c1Cl", "unit.name": "mg/L", "numeric.result": 0.0125}
{"compound": "CC1(C)S[C@@H]2[C@H](NC(=O)[C@H](N)c3ccc(O)cc3)C(=O)N2[C@H]1C(=O)O [AMOXICILLIN]", "unit.name": "mg/L", "numeric.result": 0.025}

Let's switch to this compound now.
Incoming: Annotate the compound `Clc1cccc(Cl)c1COc1cccc2cnccc12` with its measured MIC.
Outgoing: 0.78
